Test system: parental HEK cells
Measurement Protocol: HEK parental Agonist Counterscreen Assay (non-transfected cells)
Format: cell-based
Test Conditions: HEK Agonist Activity section of Table 4 (parental HEK counterscreen)
Parameter: EC50. Scope: all listed entries.

Example entries and their recorded answers appear below.
Compound | EC50
CSc1cccc(NC(=O)C2C3C=CC4(O3)C2C(=O)N(C(C)c2ccccc2)C4C(=O)NC2CCCCC2)c1 (centres unmarked) | > 15.1 µM
Cc1ccc(CN2CCN(CC(=O)N3CC(C)CC(C)C3)C2=O)cc1 (centres unmarked) | > 14.1 µM
Cc1ccccc1-c1nc(C[S+]([O-])CC(=O)NC(C)CCc2ccccc2)c(C)o1 (centres unmarked) | > 14.1 µM
O=c1nc(SCc2ccccc2F)c2c([nH]1)CCC2 | > 14.1 µM
O=C(CN1CCN(Cc2ccccc2Cl)C1=O)NC1CCCCCCC1 | > 14.1 µM

Lookup: What value of measured EC50 is listed for COCC(=O)Oc1c(Sc2c(F)c(F)c(F)c(F)c2F)c(C)nn1C(C)(C)C ?
Found: 5.7 µM

Lookup: What value of measured EC50 is listed for CC(C)c1ccc(NC(=O)Cn2ncc3c2-c2ccccc2OC3)cc1 ?
Found: > 14.1 µM

Lookup: What value of measured EC50 is listed for Cc1ccc(SCC(=O)Nc2nnc(-c3ccco3)o2)cc1 ?
Found: > 14.3 µM

Lookup: What value of measured EC50 is listed for CN(C(=O)CN1C(=O)NC(C)(c2ccc3ccccc3c2)C1=O)C1CCCCC1 (centres unmarked) ?
Found: > 14.3 µM

----------
System: parental HEK cells
Measurement Protocol: HEK parental Agonist Counterscreen Assay (non-transfected cells)
Type: cell-based
Test Conditions: HEK Agonist Activity section
Parameter: Lipophilic Efficiency (logD). Scope: all listed entries.
Respond with the number and no other words.

Example entries and their recorded answers appear below.
Compound | Measured Number
COc1ccc(CCNC(=O)c2cccc(-c3ccc(OC)nc3)c2)cc1 [SR-01000652579] | 1.08
O=C(CNc1nnc(CCCOc2ccc(Cl)cc2Cl)o1)Nc1nccs1 [SR-01000280669] | 1.27
CCCc1cc(=O)n2[nH]c(NCc3ccccc3F)nc2n1 [SR-01000100493] | 1.65
CCCc1ccc(NC(=O)CCc2nc3c(c(=O)n2C)CCC3)cc1 [SR-01000017533] | 2.68
C=C(CC1C(=O)CC(c2ccccc2)(c2ccccc2)C1=O)C(C)CC1=CC=CC1 (stereo not shown) [SR-01000062305] | 1.70

Lookup: What value of measured Lipophilic Efficiency (logD) is listed for O=C(Cc1cccc2ccccc12)NCC(=O)NNC(=O)c1ccco1 [SR-01000069451] ?
Found: 3.83

Lookup: What value of measured Lipophilic Efficiency (logD) is listed for CC(C)(C)OC(=O)NNC(=O)COCc1ccc(Cl)c(Cl)c1 [SR-01000074687] ?
Found: 1.33

Lookup: What value of measured Lipophilic Efficiency (logD) is listed for CCOc1ccccc1NC(=O)CN1C(=O)NC(C)(c2ccc(Cl)cc2Cl)C1=O (stereo not shown) [SR-01000072797] ?
Found: 1.39

----------
Parameter: EC50. Scope: all listed entries.
Target Desc: UniProtKB Q6DWJ6
Measurement Protocol: GPR139 Antagonist titration assay (calcium detection, HEK-GPR139 cells, vs EC80 of S-JNJ-63533054)
Quote the value and follow it with the unit of measurement.

Example entries and their recorded answers appear below.
Molecule | EC50
O=C(Nn1c(-c2cccc(Cl)c2)nc2ccccc2c1=O)c1cc(Br)ccc1Cl [SR-01000433654] | 7 µM
Cc1cc(C)cc(-n2cnc3cc(C(=O)NCc4ccccc4Cl)ccc32)c1 [SR-01000579741] | 3.1 µM

Lookup: What value of measured EC50 is listed for COc1cccc(OC)c1C(=O)Oc1ccc2c(=O)c(-c3ccc(Cl)cc3)c(C(F)(F)F)oc2c1 [SR-01000471218] ?
Found: 1.1 µM

----------
Parameter: Lipophilic Efficiency (logP). Scope: all listed entries.
Target Desc: UniProt Q6DWJ6
Measurement Protocol: GPR139 Agonist titration / agonist counterscreen assay (calcium detection, HEK-GPR139 cells)
Assay type: cell-based
Parameters: expressed in transfected cells; host or cells: HEK Aequorin cells, Maxcyte transient transfection
Test Conditions: GPR139 Agonist Activity; based on logP
Respond with the number and no other words.

Compound | Target Desc | Lipophilic Efficiency (logP)
Cc1ccc(C)c(C(=O)CCC(=O)NNC(=O)c2cc(C)oc2C)c1 | UniProt Q6DWJ6 | 4.99

Now take the following compound into account.
Lookup: Tell me reported Lipophilic Efficiency (logP) for O=C(NCC1Cc2cccc(-c3ccccn3)c2O1)c1ccc(-n2cccn2)cc1 (centres unmarked) , tested with UniProt Q6DWJ6.
Found: 3.96

----------
Parameter: GPR139 Antagonist Activity Hill Slope. Scope: all listed entries.
Target Desc: UniProt Q6DWJ6
Measurement Protocol: GPR139 Antagonist titration assay (calcium detection, HEK-GPR139 cells, vs EC80 of S-JNJ-63533054)
Test Conditions: fitted dose-response curve
Respond with the number and no other words.

Lookup: What value of measured GPR139 Antagonist Activity Hill Slope is listed for COc1ccc(C2=NN(C3CCCCCC3)C(=O)[C@@H]3CC=CC[C@@H]23)cc1OCCCCOc1ccc(-c2nn[nH]n2)cc1 ?
Found: 0.39

Lookup: What value of measured GPR139 Antagonist Activity Hill Slope is listed for O=C(CCC(=O)OCc1ccc(Br)cc1)Nc1ccc(F)cc1 ?
Found: 1.05

Lookup: What value of measured GPR139 Antagonist Activity Hill Slope is listed for CCCCCCOC(=S)SCC(=O)Nc1ccccc1 ?
Found: 1.30

Lookup: What value of measured GPR139 Antagonist Activity Hill Slope is listed for CC(C)C(=O)N1CCN(c2nc(-c3ccccc3)c3c(c2C#N)CCCC3)CC1 ?
Found: 1.21

Lookup: What value of measured GPR139 Antagonist Activity Hill Slope is listed for CCN1C(=O)c2cccc3c(S(=O)(=O)Nc4cccc(F)c4)ccc1c23 ?
Found: 0.62

Lookup: What value of measured GPR139 Antagonist Activity Hill Slope is listed for Cc1ccc(-n2cc(-c3ccccc3)nc2SCC(=O)Nc2cccc(C)c2C)cc1 ?
Found: 1.30

Lookup: What value of measured GPR139 Antagonist Activity Hill Slope is listed for N#CCC(=O)c1ccccc1Oc1ccc(F)cc1 ?
Found: 1.05

Lookup: What value of measured GPR139 Antagonist Activity Hill Slope is listed for COc1cc(C(=O)Nc2ccc(N3C(=O)c4ccc(Cl)cc4C3=O)c(C)c2)cc(OC)c1OC ?
Found: 0.63

----------
Parameter: Efficiency Ligand. Scope: all listed entries.
Target Desc: GPR139 (Homo sapiens, UniProt Q6DWJ6)
Sequence (Q6DWJ6 whole entry): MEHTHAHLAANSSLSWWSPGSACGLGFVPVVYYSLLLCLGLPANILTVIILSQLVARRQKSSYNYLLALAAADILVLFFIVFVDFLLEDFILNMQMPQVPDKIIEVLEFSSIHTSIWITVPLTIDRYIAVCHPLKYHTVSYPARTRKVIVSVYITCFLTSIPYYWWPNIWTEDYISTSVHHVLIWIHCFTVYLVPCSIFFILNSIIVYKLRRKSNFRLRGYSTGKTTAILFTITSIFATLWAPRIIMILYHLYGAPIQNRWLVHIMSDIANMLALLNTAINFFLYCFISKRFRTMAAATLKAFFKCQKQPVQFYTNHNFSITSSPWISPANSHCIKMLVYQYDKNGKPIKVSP
Measurement Protocol: GPR139 Agonist titration / agonist counterscreen assay (calcium detection, HEK-GPR139 cells)
Format: cell-based
Parameters: expressed in transfected cells; host or cells: HEK Aequorin cells, Maxcyte transient transfection
Test Conditions: GPR139 Agonist Activity; ligand efficiency
Respond with the number and no other words.

Compound | Efficiency Ligand
Cc1ccc2c(c1)-c1c(cnn1CC(=O)Nc1ccccn1)CO2 | 0.40

Lookup: What value of measured Efficiency Ligand is listed for CC1CCCC(NC(=O)CN2CCCN(Cc3ccc(F)cc3Cl)C2=O)C1C (centres unmarked) ?
Found: 0.38

Lookup: What value of measured Efficiency Ligand is listed for COc1ccccc1NC(=O)NNC(=O)CN1C(=O)COc2ccccc21 ?
Found: 0.37

Lookup: What value of measured Efficiency Ligand is listed for CC1(c2ccc3c(c2)OCO3)NC(=O)N(CC(=O)Nc2ccccc2[N+](=O)[O-])C1=O (centres unmarked) ?
Found: 0.32

Lookup: What value of measured Efficiency Ligand is listed for Cc1c(C(=O)NC(C)(C)CO)cnn1-c1ncc2c(n1)-c1ccccc1CC2 ?
Found: 0.39

Lookup: What value of measured Efficiency Ligand is listed for COc1ccc(CCNC(=O)Nc2ccc(C)cc2)cc1 ?
Found: 0.44

Lookup: What value of measured Efficiency Ligand is listed for O=C(CC(c1ccccc1)c1ccccc1)Oc1coc(CSc2ncccn2)cc1=O ?
Found: 0.32

Lookup: What value of measured Efficiency Ligand is listed for COCC(=O)Oc1c(Sc2c(F)c(F)c(F)c(F)c2F)c(C)nn1C(C)(C)C ?
Found: 0.36

----------
Parameter: Averaged Max % Response (±St. Dev.). Scope: all listed entries.
System: parental HEK cells
Measurement Protocol: HEK parental Agonist Counterscreen Assay (non-transfected cells)
Type: cell-based
Test Conditions: HEK Agonist Activity; activity relative to known control
Quote the value and follow it with the unit of measurement.

Compound | Averaged Max % Response (±St. Dev.)
O=C(Cn1ccc([N+](=O)[O-])n1)NCCc1ccc(Cl)cc1 | 2.39 ± 2.18%

Lookup: What value of measured Averaged Max % Response (±St. Dev.) is listed for O=C(NNC(=O)C1CC1c1ccccc1)Nc1cccc(Cl)c1 (centres unmarked) ?
Found: 4.74 ± 3.91%

Lookup: What value of measured Averaged Max % Response (±St. Dev.) is listed for CC1=CN=C(CCc2ccc(F)c3ccccc23)C1 ?
Found: −17.88 ± 3.50%

Lookup: What value of measured Averaged Max % Response (±St. Dev.) is listed for Cc1c(C(=O)NC(C)(C)CO)cnn1-c1ncc2c(n1)-c1ccccc1CC2 ?
Found: −7.52 ± 3.99%

Lookup: What value of measured Averaged Max % Response (±St. Dev.) is listed for CCC1CCCCN1C(=O)CN1C(=O)NC(C)(c2ccc3ccccc3c2)C1=O (centres unmarked) ?
Found: −4.34 ± 6.43%
